Biological target: Luciferin 4-monooxygenase (Photinus pyralis)
Assay: qHTS profiling assay for firefly luciferase inhibitor/activator using purifed enzyme and Km concentrations of substrates (counterscreen for miR-21 project); note: nearly all actives have a fitted effect of over 55% in size
Conditions: purified FLuc, luminescence inhibition; series mostly up to 57.5 µM
Among all 360,000 compounds or so, about 25,000 (6.9%) were called active. Roughly 9% stayed inconclusive and do not appear here. Calls come from the whole dose curve; as a rule, active = well fitted inhibition curve with a large enough effect; inconclusive = small, poorly fitted or top-dose-only effect; inactive = flat fitted curve, though single readings scatter. Many of the other results were omitted from the sample, so actives are more common in it than they were.
Respond with a class label; see true for active, false for inactive

Exercise: Hi team, can someone confirm the assay call for COCCNC(=O)CN1C2CCC1CC(O)(c1cccnc1)C2 (stereo unspecified) ?
Key: false

Exercise: Proceed to CCCCCn1c(=O)c(C(=O)NCc2ccccc2)c(O)c2ccccc21
Key: false

Exercise: Continue with CC(=O)Oc1ccccc1C(=O)Nc1ncc([N+](=O)[O-])s1
Key: true

***
Exercise: Answer briefly: the call reported for CCC(=NCc1ccco1)c1c(O)n(Cc2ccccc2)c(=O)[nH]c1=O in this assay.
Key: false

Exercise: What about CCC(=NCCc1ccccc1)c1c(O)n(C2CCCCC2)c(=O)[nH]c1=O ?
Key: false

Exercise: Item: c1ccc2sc(C3CCCNC3)nc2c1 (stereo unspecified)
Key: false

Exercise: Similarly, CC/C(=N\NC(=O)c1ccccc1O)c1c(O)n(Cc2ccccc2)c(=O)[nH]c1=O ?
Key: true

Exercise: Would you kindly repeat that for COC(=O)C1=C(c2ccc(F)cc2OCc2ccccc2)C[C@@H]2CC[C@H]1N2C(=O)NCc1ccc(Cl)cc1 ?
Key: false

Exercise: Next entry: COC(=O)C1=C(c2c(C)noc2C)C[C@@H]2CC[C@H]1N2C(=O)NCc1ccc2c(c1)OCO2
Key: false

Exercise: And then CCN(CC)P(=O)(Oc1cccc(C)c1)N(CC)CC , what is it?
Key: false

Exercise: Next entry: COc1cccc(-c2nc3ccc(N4CCN(C)CC4)cc3[nH]2)c1
Key: true

These entries and their values trace back to PubChem BioAssay AID588342.
